target: rabbit reticulocyte 15-LO (Oryctolagus cuniculus, UniProt P12530); construct: Fifteen-lipoxygenase was obtained from phenylhydrazine-treated rabbits and purified per the method of Rapoport; from tissue; host or cells: reticulocytes of phenylhydrazine-treated rabbits; assay: Rabbit Reticulocyte 15-LO Assay (h15LO); assay type: biochemical; conditions: 0.25 h; Table 2; @ 10 μM; read-out: h15LO % @ 10 μM
Sequence (P12530 whole entry): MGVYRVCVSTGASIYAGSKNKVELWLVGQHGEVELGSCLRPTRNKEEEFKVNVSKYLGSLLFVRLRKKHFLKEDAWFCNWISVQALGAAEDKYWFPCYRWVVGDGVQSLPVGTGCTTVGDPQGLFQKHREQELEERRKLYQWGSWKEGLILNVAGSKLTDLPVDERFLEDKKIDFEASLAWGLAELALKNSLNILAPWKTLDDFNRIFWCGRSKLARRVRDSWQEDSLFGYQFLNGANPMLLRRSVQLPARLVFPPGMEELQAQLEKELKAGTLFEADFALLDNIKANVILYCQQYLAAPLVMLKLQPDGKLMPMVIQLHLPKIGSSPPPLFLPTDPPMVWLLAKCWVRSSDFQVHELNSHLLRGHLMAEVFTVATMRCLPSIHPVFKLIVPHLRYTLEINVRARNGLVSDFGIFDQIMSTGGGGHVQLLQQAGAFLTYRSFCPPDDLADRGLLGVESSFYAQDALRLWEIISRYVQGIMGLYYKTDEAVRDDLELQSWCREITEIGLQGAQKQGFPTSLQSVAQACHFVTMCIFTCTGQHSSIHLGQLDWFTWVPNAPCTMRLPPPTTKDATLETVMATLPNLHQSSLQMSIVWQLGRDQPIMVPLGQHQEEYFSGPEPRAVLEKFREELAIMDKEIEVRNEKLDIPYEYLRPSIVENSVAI
Measurement type: inhibition at 10 µM (%)

Recorded inhibition at 10 µM, per entry:
{"columns": ["Molecule", "Quantity unit", "inhibition at 10 µM"],
 "data": [
  ["O=C(Nc1ccccc1)c1cc(NC(=S)Nc2cc(Cl)cc(Cl)c2)ccc1F [Example 101]", "%", 66],
  ["CCc1ccc(C(=O)Nc2ccccc2)cc1Nc1cccc(C(F)(F)F)c1 [Example 41]", "%", 65],
  ["O=C(Nc1ccccc1)c1cccc(Oc2ccccc2)c1 [Example 53, 3-Phenoxy-N-phenyl-benzamide]", "%", 57],
  ["COc1ccc(C(=O)Oc2ccccc2)cc1Nc1ccccc1 [Example 55]", "%", 54],
  ["COc1ccc(C(=O)Nc2ccccc2)cc1Oc1ccccc1 [Example 54, 3-Phenoxy-4-methoxy-N-phenyl-benzamide]", "%", 60],
  ["COc1ccccc1Nc1cccc(C(=O)Nc2ccccc2)c1 [Example 27]", "%", 48]
]}

[P] COc1ccc(C(=O)Nc2ccccc2)cc1NCc1ccc(OC)c(OC)c1 [Example 52]
[Q] COc1ccc(S(=O)(=O)Nc2ccccc2)cc1NC(=S)Nc1cc(Cl)cc(Cl)c1 [Example 109]
stdin: Could you tell me which of P and Q has the lower inhibition at 10 µM reading? Let me know the label of the one you choose.
stdout: Q
(Q: 26%, P: 62%)

Ref: patent US6528528B2
